ASSAYED_SYSTEM: human CTPS1 (Homo sapiens)
Construct: purchased Proteros biostructures GmbH
Sequence (P17812 whole entry): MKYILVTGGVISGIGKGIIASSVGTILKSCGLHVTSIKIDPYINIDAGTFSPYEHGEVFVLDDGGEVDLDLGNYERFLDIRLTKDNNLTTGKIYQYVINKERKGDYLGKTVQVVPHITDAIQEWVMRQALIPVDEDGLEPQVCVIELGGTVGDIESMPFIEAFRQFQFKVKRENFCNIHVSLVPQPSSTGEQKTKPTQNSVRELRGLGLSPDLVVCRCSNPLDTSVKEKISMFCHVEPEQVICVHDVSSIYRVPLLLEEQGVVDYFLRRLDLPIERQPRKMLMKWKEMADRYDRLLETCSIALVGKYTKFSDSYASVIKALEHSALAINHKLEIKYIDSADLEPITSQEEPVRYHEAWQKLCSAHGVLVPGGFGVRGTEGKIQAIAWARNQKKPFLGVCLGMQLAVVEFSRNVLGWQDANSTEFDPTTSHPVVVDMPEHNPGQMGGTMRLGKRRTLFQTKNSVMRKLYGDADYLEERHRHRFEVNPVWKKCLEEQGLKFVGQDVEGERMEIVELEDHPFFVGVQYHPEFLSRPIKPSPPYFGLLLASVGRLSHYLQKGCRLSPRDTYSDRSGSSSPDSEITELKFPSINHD
ASSAY_TEXT: Human CTPS1 enzyme inhibition (ADP-Glo Max assay)
Assay type: biochemical
CONDITION_PARAMETERS: Table 18, additional potency data, 25° C., read-out: CTPS1 (Human CTPS1 Enzyme Inhibition data grouped by potency range)
pIC50: −log10 of the molar value. Where a name gives a salt, the structure may show the parent alone.
Recorded measurements of pIC50, one per entry

{"columns": ["COMPOUND", "pIC50"],
 "data": [
  ["CCC(C(=O)Nc1ccc(-c2cncc(C(C)(C)OC)n2)cc1)c1csc(NS(=O)(=O)C2CC2)n1 (centres unmarked)", "6.00 to 7.00"],
  ["COC(C)(C)c1cncc(-c2ccc(NC(=O)C(C)(C)c3csc(NS(=O)(=O)C4CC4)n3)cc2)n1", "6.00 to 7.00"],
  ["CCOc1cncc(-c2ccc(NC(=O)C(C)(C)c3csc(NS(C)(=O)=O)n3)nc2)n1", "> 7.00"],
  ["CCOc1cncc(-c2cnc(NC(=O)C(CC)c3csc(NS(=O)(=O)C4CC4)n3)c(C)c2)n1 (centres unmarked)", "> 7.00"],
  ["COC(C(=O)Nc1ccc(-c2cncc(C(F)(F)F)c2)cc1F)c1csc(NS(=O)(=O)C2CC2)n1 (centres unmarked)", "> 7.00"],
  ["Cc1c(NC(=O)C(C)(C)c2csc(NS(=O)(=O)C3CC3)n2)ccc(-c2cncc(C#N)c2)c1F", "> 7.00"],
  ["CCOc1cncc(-c2ccc(NC(=O)C(C)(C)c3csc(NS(=O)(=O)C4CCCC4)n3)cc2)n1", "6.00 to 7.00"],
  ["CCS(=O)(=O)Nc1nc(C(C)(C)C(=O)Nc2ccc(-c3cncc(C(F)(F)F)n3)cc2)cs1", "> 7.00"],
  ["COCCC(C(=O)Nc1ccc(-c2cncc(OC(C)C)n2)cc1F)c1csc(NS(=O)(=O)C2CC2)n1 (centres unmarked)", "> 7.00"],
  ["CCOc1cncc(-c2ccc(NC(=O)C(CC)c3csc(NS(=O)(=O)C4CC4)n3)c(OC(F)(F)F)c2)n1 (centres unmarked)", "> 7.00"],
  ["CC(C)(C(=O)Nc1ccc(-c2cncc(C(F)(F)F)c2)cn1)c1csc(NS(C)(=O)=O)n1", "6.00 to 7.00"],
  ["COC(C(=O)Nc1ccc(-c2cncc(OC(C)C)n2)cc1)c1csc(NS(=O)(=O)C2CC2)n1 (centres unmarked)", "> 7.00"],
  ["CCOc1cncc(-c2ccc(NC(=O)C(N)c3csc(NS(=O)(=O)C4CC4)n3)c(F)c2)n1 (centres unmarked) [T419, hydrochloride]", "> 7.00"],
  ["COC(C)(C)c1cncc(-c2ccc(NC(=O)C(C)(C)c3csc(NS(=O)(=O)C4CC4)n3)nc2)n1", "5.00 to 6.00"],
  ["CCS(=O)(=O)Nc1nc(C(C)(C)C(=O)Nc2ccc(-c3cncc(C#N)c3)cc2)cs1", "6.00 to 7.00"],
  ["NC(C(=O)Nc1ccc(-c2cncc(C(F)(F)F)n2)cn1)c1csc(NS(=O)(=O)C2CC2)n1 (centres unmarked) [T417, hydrochloride]", "6.00 to 7.00"],
  ["CC(C)(C(=O)Nc1ccc(-c2cncc(O)n2)cc1)c1csc(NS(=O)(=O)C2CC2)n1", "5.00 to 6.00"],
  ["CCS(=O)(=O)Nc1nc(C(C)(C)C(=O)Nc2ccc(-c3cncc(OC(C)C)n3)cc2)cs1", "> 7.00"],
  ["CCOc1cncc(-c2ccc(NC(=O)C(C)(C)c3nc(NS(=O)(=O)C4CC4)sc3C)nc2)n1", "> 7.00"],
  ["CCOc1cncc(-c2ccc(NC(=O)C(c3csc(NS(=O)(=O)C4CC4)n3)N(C)C)c(F)c2)n1 (centres unmarked)", "> 7.00"],
  ["CCS(=O)(=O)Nc1nc(C(C)(C)C(=O)Nc2ccc(-c3cncc(OC(C)C)n3)cc2F)cs1", "> 7.00"],
  ["CCS(=O)(=O)Nc1nc(C(C)(C)C(=O)Nc2ccc(-c3cncc(F)c3)cc2)cs1", "> 7.00"],
  ["CCOc1cncc(-c2cnc(NC(=O)C(OC)c3csc(NS(=O)(=O)C4CC4)n3)c(F)c2)n1 (centres unmarked)", "> 7.00"],
  ["CN(C)C(C(=O)Nc1ccc(-c2cncc(C(F)(F)F)n2)cc1F)c1csc(NS(=O)(=O)C2CC2)n1 (centres unmarked)", "> 7.00"],
  ["CC(C)(C(=O)Nc1ccc(-c2cncc(C(F)(F)F)n2)cc1)c1csc(NS(C)(=O)=O)n1", "> 7.00"],
  ["Cc1sc(NS(=O)(=O)C2CC2)nc1C(C)(C)C(=O)Nc1ccc(-c2cncc(C(F)(F)F)n2)cn1", "6.00 to 7.00"],
  ["CCc1cc(-c2cncc(C#N)c2)cc(CC)c1NC(=O)C(C)(C)c1csc(NS(=O)(=O)C2CC2)n1", "6.00 to 7.00"],
  ["COC(C(=O)Nc1ccc(-c2cncc(C(F)(F)F)n2)cc1F)c1csc(NS(=O)(=O)C2CC2)n1 (centres unmarked) [T408]", "> 7.00"],
  ["CCOc1cncc(-c2ccc(NC(=O)C(OC)c3csc(NS(=O)(=O)C4CC4)n3)c(Cl)c2)n1 (centres unmarked)", "> 7.00"],
  ["CCOc1cncc(-c2ccc(NC(=O)C(C)(C)c3nc(NS(=O)(=O)C4CC4)sc3C)c(F)c2)n1", "> 7.00"],
  ["CC(C)c1cc(-c2cncc(C#N)c2)ccc1NC(=O)C(C)(C)c1csc(NS(=O)(=O)C2CC2)n1", "6.00 to 7.00"],
  ["CCOc1cncc(-c2ccc(NC(=O)C(CCOC)c3csc(NS(=O)(=O)C4CC4)n3)nc2)n1 (centres unmarked)", "> 7.00"]
]}
